system: K-562 leukemia; experiment: NCI tumour cell line growth inhibition, 48 h
property_label: TGI

molecule: COc1ccc(-c2nc(N(C)C)c3ccccc3n2)cc1
experimental_target: K-562 leukemia
TGI: 40.7 µM
--
molecule: C=C1C(=O)O[C@H]2[C@H]1CC/C(COC(=O)/C=C\C(=O)NCc1ccc(Cn3c(=O)sn(-c4ccc(OC)cc4)c3=O)cc1)=C\CC[C@@]1(C)O[C@@H]21
experimental_target: K-562 leukemia
TGI: 50 µM
--
molecule: NC(=O)c1nnn(Cc2cc(Cl)c(C(=O)c3ccc(Cl)cc3)c(Cl)c2)c1N
experimental_target: K-562 leukemia
TGI: > 70.2 µM
--
molecule: Nc1ccccc1/C=N\Nc1ccccc1
experimental_target: K-562 leukemia
TGI: > 100 µM
--
molecule: Oc1ccc2ccccc2c1-c1c(Nc2ccccc2)ccc2ccccc12
experimental_target: K-562 leukemia
TGI: 41 µM

Provide TGI for all items below, preserving their order.
1. Cn1c(=O)cc(NNc2ccc(Br)cc2)[nH]c1=O
2. COc1ccc(C(=O)/C(=N/Nc2ccccc2)c2ccc(OC)cc2)cc1
3. Cc1ccc(C2(C)NC(=S)N(NC(N)=S)C2=S)cc1 (stereo not given)
4. CC1=NN(c2nc(N)nc(C(C)Sc3cc(Cl)c(C)cc3S(N)(=O)=O)n2)C(C)(C)C1 (stereo not given)
5. Cc1ccccc1N=Cc1ccc(N(CCC#N)S(=O)(=O)c2ccccc2)cc1

Given back:
1: > 100 µM; 2: > 100 µM; 3: > 100 µM; 4: > 10 µM; 5: > 100 µM
